experiment: Displacement of [3H]-DTG from sigma2 receptor in guinea pig brain membranes after 120 mins in presence of sigma1 […] (+)-SKF10047 by microbeta scintillation counting method; assay type: cell membranes, Cavia porcellus
What pKi was measured for each of the following?
In simple prose, pKi is minus the logarithm base ten of a concentration in moles per litre.

Given CC(C)=CCN1CC[C@]2(C)c3cc(O)ccc3C[C@H]1[C@H]2C [(+)-PENTAZOCINE] , respond with its pKi.
5.81

Given Cc1nc(-c2ccc(Cl)cc2)nc(OCCCN2CCCCC2)c1Cl , respond with its pKi.
5.85

Given c1ccc(OCc2cc(OC[C@@H]3CCCN3)no2)cc1 , respond with its pKi.
5.88

Given Cc1ccccc1NC(=N)Nc1ccccc1C [DITOLYLGUANIDINE] , respond with its pKi.
7.55

* * *

molecular target: Sigma intracellular receptor 2 (Homo sapiens); test: Displacement of [3H]-DTG from sigma2 receptor (unknown origin) after 120 mins in presence of sigma1 […] (+)-SKF10047 by microbeta scintillation counting method; conditions: read-out: pKi (converted)
Sequence (Q5BJF2 whole entry): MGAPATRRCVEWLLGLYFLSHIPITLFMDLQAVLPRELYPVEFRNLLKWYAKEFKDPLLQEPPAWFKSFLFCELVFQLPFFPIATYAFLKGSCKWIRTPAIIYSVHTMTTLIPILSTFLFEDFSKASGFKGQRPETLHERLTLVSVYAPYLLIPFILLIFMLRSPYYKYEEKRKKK
What Ki was measured for each of the following?
Number only, in nM; omit the unit.

Given O=C(c1nn(-c2ccccc2)c2c1CC(NCc1ccccc1)CC2)N1CCCCC1 (stereo unspecified) , respond with its Ki.
501

Given CCCn1nc(C(=O)N(C)C)c2c1CCC(NCc1ccc(F)cc1)C2 (stereo unspecified) , respond with its Ki.
2000

Given CCCn1nc(C(=O)N2CCCCC2)c2c1CCC(NCCc1ccc(O)cc1)C2 (stereo unspecified) , respond with its Ki.
251

Given O=C(c1c2c(nn1-c1ccc(O)cc1)CCC(NCCc1ccccc1)C2)N1CCCCC1 (stereo unspecified) , respond with its Ki.
251

Given O=C(c1c2c(nn1-c1ccccc1)CCC(NCc1ccccc1)C2)N1CCCCC1 (stereo unspecified) , respond with its Ki.
126

Given O=C(c1c2c(nn1-c1ccccc1)CCC(NCc1ccc(F)cc1)C2)N1CCCCC1 (stereo unspecified) , respond with its Ki.
158

Given O=C(c1c2c(nn1-c1ccccc1)CCC(NCCc1ccc3c(c1)OCO3)C2)N1CCCCC1 (stereo unspecified) , respond with its Ki.
31.6

Given O=C(c1nn(-c2ccccc2)c2c1CC(NCCc1ccc(F)cc1)CC2)N1CCCCC1 (stereo unspecified) , respond with its Ki.
100

Given O=C(c1nn(-c2ccccc2)c2c1CC(NCCc1ccc3c(c1)OCO3)CC2)N1CCCCC1 (stereo unspecified) , respond with its Ki.
316

Given CCCn1nc(C(=O)N(C)C)c2c1CCC(NCCc1ccc3c(c1)OCO3)C2 (stereo unspecified) , respond with its Ki.
398

Given CCCn1nc(C(=O)N(C)C)c2c1CCC(NCCc1ccc(C(F)(F)F)cc1)C2 (stereo unspecified) , respond with its Ki.
631

* * *

What pKi was measured for each of the following?
target: Sigma non-opioid intracellular receptor 1 (Homo sapiens, UniProt Q99720); experiment: Displacement of [3H]-(+)-pentazocine from sigma1 receptor (unknown origin) expressed in HEK293 cell membranes after 120 mins by microbeta scintillation counting method
Sequence (Q99720 whole entry): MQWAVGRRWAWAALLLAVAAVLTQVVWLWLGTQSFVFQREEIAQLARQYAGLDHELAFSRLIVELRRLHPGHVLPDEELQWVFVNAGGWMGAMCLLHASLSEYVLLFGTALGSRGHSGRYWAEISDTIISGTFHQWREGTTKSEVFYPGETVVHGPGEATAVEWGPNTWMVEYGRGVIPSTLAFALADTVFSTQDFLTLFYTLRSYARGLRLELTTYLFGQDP
In simple prose, pKi is minus the logarithm base ten of a concentration in moles per litre.

Given CCCn1nc(C(=O)N(C)C)c2c1CCC(NCCc1ccc3c(c1)OCO3)C2 (centres undefined) , respond with its pKi.
6.30

Given O=C(c1c2c(nn1-c1ccccc1)CCC(NCc1ccc(F)cc1)C2)N1CCCCC1 (centres undefined) , respond with its pKi.
7.50

Given O=C(c1c2c(nn1-c1ccc(F)cc1)CCC(NCCc1ccncc1)C2)N1CCCCC1 (centres undefined) , respond with its pKi.
7.00

Given O=C(c1nn(-c2ccccc2)c2c1CC(NCCc1ccc3c(c1)OCO3)CC2)N1CCCCC1 (centres undefined) , respond with its pKi.
6.30

Given O=C(c1nn(-c2ccccc2)c2c1CC(NCc1ccccc1)CC2)N1CCCCC1 (centres undefined) , respond with its pKi.
6.20

Given O=C(c1c2c(nn1-c1ccccc1)CCC(NCCc1ccc(C(F)(F)F)cc1)C2)N1CCCCC1 (centres undefined) , respond with its pKi.
6.70

Given O=C(c1c2c(nn1-c1ccccc1)CCC(NCc1ccccc1)C2)N1CCCCC1 (centres undefined) , respond with its pKi.
7.40

Given O=C(c1nn(-c2ccccc2)c2c1CC(NCCc1ccc(C(F)(F)F)cc1)CC2)N1CCCCC1 (centres undefined) , respond with its pKi.
6.50

Given O=C(c1c2c(nn1-c1ccccc1)CCC(NCCc1ccc3c(c1)OCO3)C2)N1CCCCC1 (centres undefined) , respond with its pKi.
7.20
